Hello, the source for this data is patent US4242330A, in case you need it.

assay: rate of generation of aspirin via hydrolysis, determined spectrophotometrically at 285 nm; assay type: physicochemical; settings: buffer, pH 8, pH 8, 37° C; average of three determinations; read-out: half-life of hydrolysis to aspirin (t1/2)
observable: half-life
Write the numeric value and follow it with the unit.

Query: Supply reported half-life belonging to this compound: `CC(=O)Oc1ccccc1C(=O)O[C@@H]1C[C@@H](O)[C@H](O)[C@@H](CO)O1`
Reply: 7 min

* * *

experiment: rate of generation of aspirin via hydrolysis, determined spectrophotometrically at 285 nm; format: physicochemical; settings: buffer, pH 3, pH 3, 37° C; average of three determinations; read-out: half-life of hydrolysis to aspirin (t1/2)
observable: half-life (min)
Report as a plain number; the unit min is understood.

Query: Supply reported half-life belonging to this compound: `CC(=O)Oc1ccccc1C(=O)O[C@@H]1C[C@@H](O)[C@H](O)[C@@H](CO)O1`
Reply: 7
